Target: T1, human Glypican-1 (UniProt P35052 24-530)
T1 chain: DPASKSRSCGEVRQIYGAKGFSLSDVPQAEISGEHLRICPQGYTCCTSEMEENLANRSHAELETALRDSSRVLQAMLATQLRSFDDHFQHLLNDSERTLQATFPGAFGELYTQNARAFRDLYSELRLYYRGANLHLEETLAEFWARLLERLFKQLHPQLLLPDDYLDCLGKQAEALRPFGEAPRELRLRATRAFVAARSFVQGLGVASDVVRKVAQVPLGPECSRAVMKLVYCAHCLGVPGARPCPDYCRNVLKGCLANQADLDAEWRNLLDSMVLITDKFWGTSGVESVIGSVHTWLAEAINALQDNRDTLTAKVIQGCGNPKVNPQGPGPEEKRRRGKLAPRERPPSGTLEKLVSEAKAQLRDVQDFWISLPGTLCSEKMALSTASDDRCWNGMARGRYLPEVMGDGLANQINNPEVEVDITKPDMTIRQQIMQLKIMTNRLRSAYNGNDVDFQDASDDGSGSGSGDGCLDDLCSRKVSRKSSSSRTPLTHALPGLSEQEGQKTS
Assay: FACS
# Kd annotations
Only the number, expressed in nM, is required.

anti-Glypican-1 antibody clone K090-02a010 (antibody, V domains shown) VH: EVKLVESGGGLVKPGGSRKLSCAASGFTFSDYGMHWVRQAPEKGLEWVAYINSGSSTIYYADTVKGRFTISRDNAKNTLFLQMTSLRSGDTAMYYCARHSYYSYDVGGDYVMDYWGQGTSVTVSS VL: DIVLTQSPKFMSTSVGDRVSITCKASQDVGTAVAWYQQKPGQSPKLLIYWASTRHTGVPDRFTGSGSGTDFTLTISNVQSEDLADYFCQQYSSYPLTFGAGTKLEIKR: 2.25
anti-Glypican-1 antibody clone K090-02a014 (antibody, V domains shown) VH: EVQLQQSGPELVKPGASVKISCKASGYSFTGYYIHWVKQSPEKSLEWIGEINPSTGDITYNQKFKAKATLTVDKSSSTAYMQLKSLTSDDSAVYYCARERNYDRFAYWGQGTLVTVSS VL: SIVMTQTPALMAASPGEKVTITCSVSSSISSSNLHWYQQKSETSPKPWIYGTSNLASGVPVRFSGSGSGTSYSLTISSMEAEDAATYYCQQWSSYPLTFGAGTKLEIKR: 1.72

Problem: Find the recorded Kd belonging to anti-Glypican-1 antibody clone K090-01a026 (antibody, V domains shown) VH: QVHLQQSGAELVRPGTSVKMSCKAAGYTFTNYWIGWVKQRPGHGLEWIGDIYPGGGYTHYNEKFKGKATLTADTSSSTAYMQLSSLTSEDSAIYYCARERVYYDGSRFFDVWGAGTTVTVSS VL: DIVMSQSPKFLPVSAGDRVTMTCKASQSVGNNVAWYQQKPGQSPKLLIYYASNRYTGVPDRFTGSGSGTDFTFTISSVQVEDLAVYFCQQHYSSPWTFGGGTKLEIKR and report it.
Solution: 11.2
